I'd be grateful if you could share measured apparent KD of K4 kissing-loop reporter for these entries.
test system: K4 kissing-loop RNA reporter; assay: apparent KD of K4 kissing-loop reporter; higher = weaker reporter binding; settings: Eterna round: R107; input ligand: FMN 200 uM;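 further: bound reporter read as fluorescence of individual clusters on recovered sequencing chips by microscopy, with normalized cluster intensities fitted with a binding model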
A number alone suffices; assume nM.

Requested field: apparent KD of K4 kissing-loop reporter. Item: UAACGCCACUAAGAUACCAGACAUACAGAUCGGAUCUCCUAAAGAGAGUGAUGUUCUCUAGUCCCUUGGCAGCUUCUGGACUCCC [theeternabot_sameState_KL_Theo_B_9]
296

Please give the result for GGAUUCACCAGUGAUGUUGGAGAAAACUCGAAGGAUAUGACGAAAGUCAGAAGGUCGUAGACUGGACAAAGUCCGGUCGGAUCCA [KL-SSFMN-A22] too.
419

Please give the result for GGUGCGGGCUCGGCCGCCACUCCCUCCUGCCGUAAGGUGGGAUACCGAGUGAUGUUCGGUUGGAGGAGGACCGGGAGCCCGUGCC [#2 Exclusion - Tryptophan B Attempt #16 (HarryS)] too.
131

###

test system: MS2 coat protein; test: apparent KD of MS2 coat protein; designed switch direction (-1 OFF switch, 1 ON switch): -1; higher = weaker reporter binding; conditions: input ligand: microRNA oligo, concentration not stated
recordedMetric: apparent KD of MS2 coat protein (nM)
A number alone suffices; assume nM.

Requested field: apparent KD of MS2 coat protein. Item: UUAAUUAAUUGCGCAAGAUCACAUGAGGAUCACCCAUGUAUAUAGGAUAUCAGCUCGUGUAGAGCUGAGAAGGAUAUACAGCGC [ExNG3/3-A3] (Eterna round: R96, puzzle: Exclusion NG 3)
419

Please give the result for CUGAACCCGGUAGGAUAUAUUGUGGGCAAGCAUGGAACGACAUGAGGAUCACCCAUGUAAUUUAGGUAGAAGGGCCAAAAGAUU [Excl-NG2-LRO09] (Eterna round: R96, puzzle: Exclusion NG 2) too.
28.9

Please give the result for UGAUCUAGCGGAGGAUAUACAUGAGGAUCACCCAUGUAGUAGUGAGUUGCGUACAGCUCACUUGUGUAGAAGGCCGCUAGAUCU [JL ENG2 3.59] (Eterna round: R96, puzzle: Exclusion NG 2) too.
10.1

Please give the result for UUUAAUUUAAUUAAGAUCACAUGAGGAUCACCCAUGUAAUUAUAGGAUAUCAGCUCGUUUAGAGCUGAGAAGGAUAAUUACAUA [ExNG3/5-A2] (Eterna round: R96, puzzle: Exclusion NG 3) too.
23.8

Please give the result for AUAAAUCAUGUAGGAUAUGCGUAGCGAAGCUAUGCAGAAGGACAUGAGGAUCACCCAUGUCUUUCCGUCUGCGUACAGACGGAA [Mat - Exclusion NG 1 - Mod of JL - D42] (Eterna round: R96, puzzle: Exclusion NG 1) too.
20.1

###

test system: MS2 coat protein; assay: apparent KD of MS2 coat protein; designed switch direction (-1 OFF switch, 1 ON switch): -1; higher = weaker reporter binding; conditions: input ligand: FMN 200 uM
Class 1: apparent KD of MS2 coat protein at least 100 nM. Class -1: apparent KD of MS2 coat protein below 100 nM.

Given the entry GCGCCAUCGUGAGAUGGCGUAAUUACAUGAGGAUCACCCAUGUAGGAUAUCGAUUGCUUUGCAGUCGAGAAGGGCAUGUUUUGU [JL ENG3 3.85] (Eterna round: R96, puzzle: Exclusion NG 3) , answer whether its apparent KD of MS2 coat protein meets or surpasses 100 nM.
-1

Please give the result for AGAUGCUCGAGUCGACAUGAGGAUCACCCAUGUACAGUUAGUGAGGAUAUCUGAGACACAUAGUAGGAGAAGGCGCGAACAUGA [Ex NG3 #13] (Eterna round: R96, puzzle: Exclusion NG 3) too.
1

Please give the result for UCUUACUGAGGAUAUACUUAGAUUUACAUGAGGAUCACCCAUGUUCCUCUAUGUAUAUAUGUAGAAGGCAGAAGAA [Mat - Exclusion 5 - JL Mod - D46] (Eterna round: R97, puzzle: Exclusion 5) too.
1

Please give the result for CCAAAGUCAGGAUAUACAUGAGGAUCACCCAUGUAAAAUUUUAAUUUAAUUUGAAGGUGUAGAAGGGACAAACC [Ex3 #32] (Eterna round: R97, puzzle: Exclusion 3) too.
-1

Please give the result for UGAUCAGACCGAGGAUAUACAUGUAGGACGCACGUGAGUGCGUCCAUUACAUGAGGAUCACCCAUGUAGAAGGCGGUCUGAUCU [JL ENG2 1.93] (Eterna round: R96, puzzle: Exclusion NG 2) too.
1
